# TARGET_UNDER_TEST: T1, Macaca fascicularis IL2Rγ extracellular domain expressed with a C-terminal myc-myc-hexahistidine tag (Macaca fascicularis)
# T1 construct: also called mfIL-2Rg-MMH; mfIL-2RG-MMH
# T1 chain: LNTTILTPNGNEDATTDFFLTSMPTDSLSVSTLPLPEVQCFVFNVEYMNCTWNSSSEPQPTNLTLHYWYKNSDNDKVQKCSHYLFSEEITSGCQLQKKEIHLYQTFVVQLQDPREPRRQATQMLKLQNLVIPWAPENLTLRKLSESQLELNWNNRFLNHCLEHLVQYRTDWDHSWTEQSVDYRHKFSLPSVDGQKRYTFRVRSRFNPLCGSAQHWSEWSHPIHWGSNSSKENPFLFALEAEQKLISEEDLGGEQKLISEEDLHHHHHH
# ASSAY_EXPLANATION: SPR, captured mAb, 25C, dissociation pH 7.4
We use 0.0002 s⁻¹ as the dividing line for koff: on or above the line is True, below is False.

Please review the entries below; each comes with its answer.
>  <BINDER>
H4H13541P (antibody, human IgG4 S228P, kappa, V domains shown, anti-IL2Rgamma mAb expressed with human IgG4 Fc) VH: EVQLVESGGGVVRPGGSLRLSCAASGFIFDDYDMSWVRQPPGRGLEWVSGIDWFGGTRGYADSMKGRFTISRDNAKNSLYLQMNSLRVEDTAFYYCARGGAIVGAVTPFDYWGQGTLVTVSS VL: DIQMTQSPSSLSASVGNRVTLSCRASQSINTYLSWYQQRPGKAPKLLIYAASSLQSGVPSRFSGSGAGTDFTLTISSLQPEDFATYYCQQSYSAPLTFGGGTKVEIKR

>  <LABEL_CLASS>
True

$$$$
>  <BINDER>
H4H12884P (antibody, human IgG4 S228P, kappa, V domains shown, anti-IL2Rgamma mAb expressed with human IgG4 Fc) VH: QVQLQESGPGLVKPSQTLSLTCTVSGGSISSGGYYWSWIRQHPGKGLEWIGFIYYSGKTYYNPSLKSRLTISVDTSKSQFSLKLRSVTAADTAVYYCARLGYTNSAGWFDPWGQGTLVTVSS VL: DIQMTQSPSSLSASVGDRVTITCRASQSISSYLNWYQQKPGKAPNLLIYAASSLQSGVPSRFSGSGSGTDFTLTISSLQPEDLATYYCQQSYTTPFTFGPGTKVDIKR

>  <LABEL_CLASS>
True

$$$$
>  <BINDER>
H4H12871P (antibody, human IgG4 S228P, kappa, V domains shown, anti-IL2Rgamma mAb expressed with human IgG4 Fc; also called REGN9434) VH: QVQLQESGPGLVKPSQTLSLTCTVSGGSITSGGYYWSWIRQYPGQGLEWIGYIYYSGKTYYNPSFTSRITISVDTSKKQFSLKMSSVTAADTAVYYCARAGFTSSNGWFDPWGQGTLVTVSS VL: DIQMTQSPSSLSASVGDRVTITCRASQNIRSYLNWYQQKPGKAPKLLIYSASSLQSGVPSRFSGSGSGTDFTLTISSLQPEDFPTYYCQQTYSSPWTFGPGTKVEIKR

>  <LABEL_CLASS>
True

$$$$

Could you please find out whether H4H13538P (antibody, human IgG4 S228P, kappa, V domains shown, anti-IL2Rgamma mAb expressed with human IgG4 Fc) VH: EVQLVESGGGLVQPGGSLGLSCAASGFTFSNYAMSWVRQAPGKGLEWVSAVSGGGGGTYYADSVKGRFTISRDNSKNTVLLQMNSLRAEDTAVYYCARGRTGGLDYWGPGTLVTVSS VL: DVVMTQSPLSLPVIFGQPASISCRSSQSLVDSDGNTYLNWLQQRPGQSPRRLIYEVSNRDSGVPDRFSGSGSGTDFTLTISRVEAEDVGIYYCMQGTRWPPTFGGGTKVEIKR has koff that meets 0.0002 s⁻¹ or exceeds it?
False

Could you please find out whether H4H12900P (antibody, human IgG4 S228P, kappa, V domains shown, anti-IL2Rgamma mAb expressed with human IgG4 Fc) VH: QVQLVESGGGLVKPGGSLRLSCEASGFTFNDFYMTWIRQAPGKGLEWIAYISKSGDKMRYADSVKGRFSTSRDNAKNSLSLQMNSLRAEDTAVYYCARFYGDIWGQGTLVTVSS VL: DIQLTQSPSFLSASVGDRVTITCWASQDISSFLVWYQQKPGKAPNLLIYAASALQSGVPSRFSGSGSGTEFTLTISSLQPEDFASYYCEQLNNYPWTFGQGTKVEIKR has koff that meets 0.0002 s⁻¹ or exceeds it?
False

Could you please find out whether H4H12874P (antibody, human IgG4 S228P, kappa, V domains shown, anti-IL2Rgamma mAb expressed with human IgG4 Fc) VH: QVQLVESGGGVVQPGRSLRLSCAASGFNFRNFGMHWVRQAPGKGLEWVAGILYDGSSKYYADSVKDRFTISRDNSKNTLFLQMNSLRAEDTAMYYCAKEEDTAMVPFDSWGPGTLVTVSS VL: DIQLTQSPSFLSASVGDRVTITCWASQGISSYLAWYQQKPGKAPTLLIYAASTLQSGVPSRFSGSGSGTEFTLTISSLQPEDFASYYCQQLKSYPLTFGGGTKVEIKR has koff that meets 0.0002 s⁻¹ or exceeds it?
False
